# System: OVCAR-5 ovarian
# PROCEDURE_TEXT: NCI tumour cell line growth inhibition, 48 h
Listed compounds paired with reported TGI
Give your result in µM as a bare value.

Record excerpt, results attached:
COMPOUND | TARGET_UNDER_TEST | TGI (µM)
CC1=C[C@H]2c3c(c(O)c(O)c4oc5ccccc5c(=O)c34)[C@H](c3cc(O)c(O)c4oc5ccccc5c(=O)c34)[C@H]2C(C)(C)C1 | OVCAR-5 ovarian | 14.7
Clc1ccc2[nH]cc(-c3nc(-c4c[nH]c5ncccc45)cs3)c2c1 | OVCAR-5 ovarian | 59.5

Consider the compound CCOC(=O)c1cc(C(=O)c2ccccc2)n2nc(-c3ccc(Cl)cc3)ccc12 tested on OVCAR-5 ovarian; state its TGI.
58

* * *

# Tested on: KM12 colon
# PROCEDURE_TEXT: NCI tumour cell line growth inhibition, 48 h
MEASURED_QUANTITY: TGI

MOLECULE | MEASURED_QUANTITY | OBS_VALUE
Cc1cc(-c2[nH]c(C(=O)O)cc2I)on1 | TGI | > 100 µM

Check KM12 colon data and give TGI for COc1ccccc1C1SCC(=O)N1c1ccc(-c2ccc(-n3c(-c4ccccc4)nc4ccccc4c3=O)cc2)cc1 (configuration not stated) .
> 100 µM

Given O=C(NCCC(F)(F)C(F)(F)C(F)(F)C(F)(F)F)NC1OC(CO)C(O)C(O)C1O (configuration not stated) , report its TGI on KM12 colon.
> 100 µM

* * *

# System: HCC-2998 colon
# PROCEDURE_TEXT: NCI tumour cell line growth inhibition, 48 h
MEASURED_QUANTITY: TGI

Guide cases for TGI, answers given:
MOLECULE | TGI
O=C(NCCC(F)(F)C(F)(F)C(F)(F)C(F)(F)F)NC1OC(CO)C(O)C(O)C1O (stereo not drawn) | > 100 µM
CCOc1cc2c(NCCCN(CCO)CCO)ncnc2c(OCC)c1OCC | > 100 µM

# ---- query molecule ----
Read the entry COc1cc(C2SCC(=O)N2c2ccc(-n3c(-c4ccccc4)nc4ccccc4c3=O)cc2)ccc1O (stereo not drawn) and write its reported TGI.
> 100 µM

* * *

# System: K-562 leukemia
Select the matching outcome among true (1) = active, false (0) = inactive

Answered examples (6):
COMPOUND | GROUP_LABEL
O=C(c1ccc2ncc(-c3nc(NC4CC4)ncc3F)n2c1)N1CCOCC1 | false (0)
COc1cc(/C=C2\CC3C4CC=C5C[C@@H](OC(C)=O)CC[C@]5(C)C4CC[C@]3(C)C2=O)ccc1OCCCn1ccnc1 (some centres not stated) | false (0)
NC(=O)c1cc(Br)cc(C2CCCCC2)c1O | false (0)
COc1ccc2c(Nc3ccc(NS(C)(=O)=O)cc3)c3ccccc3nc2c1 | false (0)
CC(C)=CC(=O)O[C@H]1C(=O)O[C@@H]2C[C@H]3[C@H](C)C(=O)C(O[C@@H]4O[C@H](CO)[C@@H](O)[C@H](O)[C@H]4O)=C[C@]3(C)[C@H]3[C@@H](O)[C@H](O)[C@]4(C(=O)O)OC[C@]32[C@@H]14 | false (0)
NC1CCN(c2nc(Nc3cccc(C(F)(F)F)c3)c3c(=O)[nH]ccc3n2)CC1 | false (0)

Fill in: this test's call for COC(=O)c1c2c(c(C)[n+]([O-])c1C)C(=O)C=C(NCc1ccc(F)c(F)c1)C2=O is ___
true (1)

* * *

# System: CCRF-CEM leukemia
# PROCEDURE_TEXT: NCI tumour cell line growth inhibition, 48 h
Below, each entry is listed alongside its reported TGI.

Below, 2 molecules whose answers are already recorded.
MOLECULE | TGI
COc1cc2noc(-c3ccccc3)c2cc1OC | > 100 µM
O=C(NCCC(F)(F)C(F)(F)C(F)(F)C(F)(F)F)NC1OC(CO)C(O)C(O)C1O (configuration not stated) | > 100 µM

Check CCRF-CEM leukemia data and give TGI for COc1ccc(S(=O)(=O)O)cc1-n1nc(C(=O)Nc2ccccc2)n[n+]1-c1cc(S(=O)(=O)[O-])ccc1OC .
> 100 µM

Find TGI for COC(=O)c1sc(C(=O)OC)c2c1CSC2 on CCRF-CEM leukemia and write it down.
> 100 µM

* * *

TGI reference
# Tested on: NCI-H23 lung
# PROCEDURE_TEXT: NCI tumour cell line growth inhibition, 48 h
Quick note: give the figure in µM, leave out the unit.

CHEMICAL_STRUCTURE | TGI (µM)
COc1cc(/C=C\[N+](=O)[O-])ccc1OCc1ccccc1 | 5.26

Next, consider the following molecule.
Report TGI, nothing else, for this molecule: COc1ccc(/C=C/c2nc(NCCCN(C)C)c3ccccc3n2)cc1
11.5

* * *

# Tested on: MCF7 breast
# PROCEDURE_TEXT: NCI tumour cell line growth inhibition, 48 h
MEASURED_QUANTITY: TGI

These recorded examples may help you get a feel for the data.
COMPOUND | TGI
O=c1/c(=C\c2ccccc2)sc2n1C(c1ccccc1)C1(O)CCCCC1N=2 (centres undefined) | > 100 µM
O=C1CC(=O)c2c(O)cc(O)c(c2O)-c2c(ccc(O)c2O)C2=CC(=O)c3c(O)cc(O)c(c3O2)-c2c1ccc(O)c2O (tested in a mixture with another compound) | > 50 µM
CC(=O)NCCC1CN(C(=O)/C=C\C#C[Si](C)(C)C)c2ccccc21 (centres undefined) | > 100 µM

Turning to the following compound.
Entry Nc1nc2c(c(=O)[nH]1)N(C=O)C(CNc1ccc(C(=O)N[C@@H](CCC(=O)O)C(=O)O)cc1)CN2 (some centres undefined) needs its TGI filled in; supply it.
> 125 µM

* * *

# Test system: DU-145 prostate
# PROCEDURE_TEXT: NCI tumour cell line growth inhibition, 48 h
Overview of reported TGI across a group of compounds:

COMPOUND | MEASURED_QUANTITY | OBS_VALUE
CC(=O)N1CCc2c([nH]c3ccc(Br)cc23)C1c1ccccc1 (stereo unspecified) | TGI | > 10 µM
O=C(Nc1nc2c(=O)[nH]cnc2s1)c1ccccc1 | TGI | > 100 µM

Retrieve TGI measured for CN(C)c1ccc(/C=C2\N=C(NN)NC2=O)cc1 and print it.
> 100 µM

Tell me its TGI given CC(C)SC(C)(NC(=O)C1C(C)(C)CCC1(C)C)C(=O)O (stereo unspecified) as the entry.
> 100 µM

# return recorded TGI for entry COc1cc2c(c(OC)c1OC)-c1ccc(SC)c(=O)cc1[C@@H](OC(C)=O)CC2
> 100 µM

# return recorded TGI for input O=C(CN1CCN(Cc2ccccc2)CC1)N1CCCn2c1nc1ccccc1c2=O
> 100 µM

* * *

# Tested on: HOP-62 NSCLC
Form entry, call: pick from active, inactive

Known results for compounds:
COMPOUND | GROUP_LABEL
CCOC(=O)C(=Cc1ccccc1[N+](=O)[O-])C(=O)OCC | inactive
N#Cc1c(-c2ccccc2)cc(-c2ccc(Nc3nc(Nc4ccc(Cl)cc4)nc(Nc4ccc(Cl)cc4)n3)cc2)nc1N | inactive
COC(=O)c1c2c(c(C)[n+]([O-])c1C)C(=O)C=C(NCc1ccc(F)c(F)c1)C2=O | inactive
CC(=O)O[C@H]1CC[C@@]2(C)C(=CC[C@H]3[C@@H]4C/C(=C\c5cccc(OCCN6CCOCC6)c5)[C@H](OC(C)=O)[C@@]4(C)CC[C@@H]32)C1 | inactive
COCCOC(=O)NC(=O)Nc1ccc(/C(=N/O)c2ccc(Cl)cc2)cc1 | active

Assay outcome for C#CC1(O)C(COP(=O)(O)OC2CC(n3cc(F)c(=O)[nH]c3=O)OC2CO)OC(n2ccc(N)nc2=O)C1O (stereo not drawn) : what was it?
active

Just curious, what result did Cn1ncc2c(N)nc(N3CCCCC3)nc21 get here?
inactive

Which outcome was assigned to NC1CCN(c2nc(Nc3cccc(C(F)(F)F)c3)c3c(=O)[nH]ccc3n2)CC1 in this test?
inactive

// param item: COc1cc(/C=C\[N+](=O)[O-])ccc1OCc1ccccc1 ; yields the recorded call
inactive

Name the outcome recorded for N=C(N=C(N)N)N1CCN(c2ccncc2)CC1 in the assay.
inactive

Name the outcome recorded for COc1ccccc1NC(=O)n1nc(N)c2ccccc21 in the assay.
inactive

Hi, do you know how CCCCCCCCCCN(CCCCCCCCCC)CC(=O)c1ccc2cc(Br)c3ccccc3c2c1 came out in this test?
inactive

Hi, sorry to bother you, what did the test record for COc1cc2c3c(n(CCCNCCN)c(=O)c2cc1OC)-c1cc2c(cc1C3=O)OCO2 ?
active

* * *

# Tested on: NCI-H460 lung
# PROCEDURE_TEXT: NCI tumour cell line growth inhibition, 48 h
MEASURED_QUANTITY: TGI

COMPOUND | OBS_VALUE
CCNC(=O)C#CC(=O)NCC | > 100 µM
CC(C)c1ccc(C(=O)Nc2sc3c(c2C#N)CCC(=O)C3)cc1 | > 35.9 µM

Now let's try a different one.
Complete the entry with TGI for CC(=O)O[C@H]1CC[C@@]2(C)C(=CC[C@H]3C4=CC=C(C(C)=O)[C@@]4(C)CCC32)C1 (stereo partly drawn)
> 100 µM
